meta.source: patent US11034672B1

# pIC50 annotations
Biological target: EGFR WT (Homo sapiens)
Sequence (P00533 25-1210 N540K): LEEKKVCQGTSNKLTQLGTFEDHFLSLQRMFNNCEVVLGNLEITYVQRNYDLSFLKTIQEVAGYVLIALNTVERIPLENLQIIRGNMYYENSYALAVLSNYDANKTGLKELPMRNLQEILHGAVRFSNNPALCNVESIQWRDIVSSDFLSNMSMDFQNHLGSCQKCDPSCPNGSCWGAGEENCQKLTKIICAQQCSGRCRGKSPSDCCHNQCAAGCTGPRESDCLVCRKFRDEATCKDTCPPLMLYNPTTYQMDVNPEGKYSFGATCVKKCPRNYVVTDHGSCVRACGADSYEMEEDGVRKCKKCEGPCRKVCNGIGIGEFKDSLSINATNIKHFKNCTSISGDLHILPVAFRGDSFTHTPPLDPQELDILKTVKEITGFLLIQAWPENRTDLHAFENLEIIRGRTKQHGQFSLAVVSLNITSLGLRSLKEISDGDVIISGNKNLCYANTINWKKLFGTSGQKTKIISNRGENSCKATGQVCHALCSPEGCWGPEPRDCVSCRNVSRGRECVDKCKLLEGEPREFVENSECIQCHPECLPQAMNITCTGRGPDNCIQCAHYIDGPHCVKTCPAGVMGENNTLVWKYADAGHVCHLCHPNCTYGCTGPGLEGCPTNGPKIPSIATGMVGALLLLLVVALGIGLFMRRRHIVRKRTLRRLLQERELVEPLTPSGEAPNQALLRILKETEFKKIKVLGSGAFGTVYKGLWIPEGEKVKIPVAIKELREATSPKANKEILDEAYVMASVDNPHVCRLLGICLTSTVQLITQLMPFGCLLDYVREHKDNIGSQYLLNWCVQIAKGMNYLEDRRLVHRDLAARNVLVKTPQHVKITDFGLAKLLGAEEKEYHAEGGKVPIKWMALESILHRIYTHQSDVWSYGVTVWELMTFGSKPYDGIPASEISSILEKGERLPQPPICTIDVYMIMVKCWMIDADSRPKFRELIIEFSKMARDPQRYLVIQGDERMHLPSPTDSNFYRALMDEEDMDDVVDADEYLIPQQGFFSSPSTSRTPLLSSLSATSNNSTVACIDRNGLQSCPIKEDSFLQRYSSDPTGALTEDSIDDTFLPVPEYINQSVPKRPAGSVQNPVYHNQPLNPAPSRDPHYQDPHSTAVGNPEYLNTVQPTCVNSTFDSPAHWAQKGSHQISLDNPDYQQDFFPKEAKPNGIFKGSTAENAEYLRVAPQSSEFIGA
Assay: BaF3 cell proliferation assay, EGFR WT (Table A)
Format: cell-based
Settings: potency code, 3 days, CellTiterGlo, read-out: EGFR WT (Activity for Inhibiting EGFR)
Experimental: Retroviral Production: EGFR mutants were subcloned into pMXs-IRES-Blasticidin (RTV-016, Cell Biolabs, San Diego, Calif.). Retroviral expression vector retrovirus was produced by transient transfection of HEK 293T cells with the retroviral EGFR mutant expression vector pMXs-IRES-Blasticidin (RTV-016, Cell Biolabs), pCMV-Gag-Pol vector and pCMV-VSV-G-Envelope vector. […] EC50 values were determined with the same application.
pIC50: −log10 of the molar value.
Result type: pIC50

1) C=CC(=O)Nc1cc2c(Nc3ccc(OCc4ccccn4)c(Cl)c3)ncnc2cc1N(C)CCCN1CCOCC1 [compound 12] :: 6.00 to 6.30
2) C=CC(=O)Nc1cc2c(Nc3ccc(OCc4ccccn4)c(Cl)c3)ncnc2cc1OCC1(N(C)C)CC1 [compound 54] :: < 6.00
3) C=CC(=O)Nc1cc2c(Nc3ccc(OCc4ccncn4)c(Cl)c3)ncnc2cc1OCCCN1CCOCC1 [compound 163] :: < 6.00
4) C=CC(=O)Nc1cc2c(Nc3ccc(OCc4ccccn4)c(Cl)c3)ncnc2cc1OCCN1CCC1 [compound 33] :: 6.30 to 6.52
5) C=CC(=O)Nc1cc2c(Nc3ccc(OCc4ccccn4)c(Cl)c3)ncnc2cc1N(C)CCN1CCOCC1 [compound 7] :: < 6.00
6) C=CC(=O)Nc1cc2c(Nc3ccc(OCc4ccccn4)c(Cl)c3)ncnc2cc1OCCN1CCC2C1CCN2C (centres unmarked) [compound 92] :: 6.70 to 7.00
7) C=CC(=O)Nc1cc2c(Nc3ccc(OCc4cccnn4)c(Cl)c3)ncnc2cc1OCCN1CC(OC)C1 [compound 174] :: < 6.00
8) C=CC(=O)Nc1cc2c(Nc3ccc(OCc4ccccn4)c(Cl)c3)ncnc2cc1OCCN1CCC(O)CC1 [compound 111] :: 6.30 to 6.52
9) C=CC(=O)Nc1cc2c(Nc3cc(C)c(OCc4ccccn4)cc3F)ncnc2cc1OCCN1CCOCC1 [compound 100] :: 6.30 to 6.52
10) C=CC(=O)Nc1cc2c(Nc3ccc(OCc4cccc(F)n4)c(Cl)c3)ncnc2cc1OCCCN1C[C@H]2C[C@@H]1CO2 [compound 162] :: 6.30 to 6.52
11) C=CC(=O)Nc1cc2c(Nc3ccc(OCc4ccccn4)c(Cl)c3)ncnc2cc1OCCN1CC2(CCN2C)C1 [compound 115] :: 6.52 to 6.70

---

biological target: HER2 YVMA (Homo sapiens, UniProt P04626, INS775YVMA); construct: expressed in transfected cells; host or cells: BaF3 (murine pro-B); test: Activity for inhibiting HER2 (Table B), HER2 YVMA; format: cell-based; conditions: read-out: HER2 YVMA, potency code (IC50)
Sequence (P04626 with tags, fused parts or gaps INS775YVMA): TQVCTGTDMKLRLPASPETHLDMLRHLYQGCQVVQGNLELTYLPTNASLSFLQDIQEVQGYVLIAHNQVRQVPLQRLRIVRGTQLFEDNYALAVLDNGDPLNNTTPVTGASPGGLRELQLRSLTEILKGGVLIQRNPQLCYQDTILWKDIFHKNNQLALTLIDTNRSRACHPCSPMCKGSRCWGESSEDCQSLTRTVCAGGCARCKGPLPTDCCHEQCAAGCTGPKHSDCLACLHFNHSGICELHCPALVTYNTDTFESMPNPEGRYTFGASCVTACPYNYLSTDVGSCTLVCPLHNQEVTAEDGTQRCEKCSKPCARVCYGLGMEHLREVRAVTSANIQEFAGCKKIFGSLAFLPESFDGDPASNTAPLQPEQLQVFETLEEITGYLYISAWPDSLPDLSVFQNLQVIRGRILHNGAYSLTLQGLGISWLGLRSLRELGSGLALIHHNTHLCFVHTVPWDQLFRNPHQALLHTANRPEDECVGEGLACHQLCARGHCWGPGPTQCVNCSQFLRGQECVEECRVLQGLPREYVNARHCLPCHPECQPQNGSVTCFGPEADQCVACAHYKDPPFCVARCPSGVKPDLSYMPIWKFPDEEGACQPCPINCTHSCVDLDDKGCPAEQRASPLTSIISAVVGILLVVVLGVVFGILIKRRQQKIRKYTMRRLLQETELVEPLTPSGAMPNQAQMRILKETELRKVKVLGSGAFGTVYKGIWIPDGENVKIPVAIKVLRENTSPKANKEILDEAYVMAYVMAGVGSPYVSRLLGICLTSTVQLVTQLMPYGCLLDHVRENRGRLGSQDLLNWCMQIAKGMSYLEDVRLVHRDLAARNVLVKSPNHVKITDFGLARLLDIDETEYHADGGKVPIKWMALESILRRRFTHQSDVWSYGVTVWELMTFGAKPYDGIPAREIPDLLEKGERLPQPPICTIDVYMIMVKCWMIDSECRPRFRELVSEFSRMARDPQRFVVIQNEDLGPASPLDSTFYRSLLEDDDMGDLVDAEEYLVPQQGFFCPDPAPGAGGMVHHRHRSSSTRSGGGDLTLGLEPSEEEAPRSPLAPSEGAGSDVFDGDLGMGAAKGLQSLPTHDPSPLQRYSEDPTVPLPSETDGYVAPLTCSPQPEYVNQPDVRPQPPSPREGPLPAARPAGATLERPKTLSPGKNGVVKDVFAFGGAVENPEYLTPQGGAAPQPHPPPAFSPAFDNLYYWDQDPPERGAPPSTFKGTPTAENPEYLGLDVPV
# IC50 annotations
Result type: IC50

1. CC#CC(=O)Nc1cc2c(Nc3cc(Cl)c(OCc4cccc(F)c4)cc3F)ncnc2cc1OCCN1CCOCC1 :: 0.03 to 0.05 µM
2. C=CC(=O)Nc1cc2c(Nc3ccc(Oc4ccc(C)nc4)c(C)c3)ncnc2cc1OCCN1CCOCC1 :: 0.3 to 0.5 µM
3. C=CC(=O)Nc1cc2c(Nc3ccc(OCc4ccccn4)c(Cl)c3)ncnc2cc1OCCN(C)C1CCOC1 (stereo not drawn) :: 0.05 to 0.1 µM
4. C=CC(=O)Nc1cc2c(Nc3ccc(OCc4ccccn4)c(Cl)c3)ncnc2cc1OCCN1CC2CN(C)CC2C1 (stereo not drawn) :: 0.1 to 0.2 µM
5. C=CC(=O)Nc1cc2c(Nc3ccc(OCc4ccccn4)c(Cl)c3)ncnc2cc1N1CC2CN(C)CC2C1 (stereo not drawn) :: 0.5 to 1 µM
6. C=CC(=O)Nc1cc2c(Nc3ccc(OCc4ccccn4)c(Cl)c3)ncnc2cc1C#CC(C)(C)N1CCCC1 :: 0.03 to 0.05 µM
